Reported pIC50 for target or system BACE (Homo sapiens, UniProt P56817), by entry.
Answer as the number alone; pIC50 is minus log10 of concentration in mol/L.

As a guide, the following entries are already answered.
Could you share which pIC50 value was measured for NC1=N[C@@]2(CO[C@H]1C1CCCCC1)c1cc(-c3cccnc3F)ccc1Oc1cnc(Cl)cc12 (racemic) [Example 56A] ? 7.51

Field entry: NC1=N[C@@]2(COC1)c1cc(-c3cncc(F)c3)ccc1Oc1cnc(-c3ccnc(F)c3)cc12 [compound 113] 9.30

New cases:
Could you share which pIC50 value was measured for NC1=N[C@@]2(COC1)c1cc(-c3cnccc3F)ccc1Oc1cnc(-c3ccc(F)c(F)c3)cc12 [compound 117] ? 9.52

Field entry: NC1=N[C@@]2(CCO1)c1cc(-c3cccnc3F)ccc1Oc1c2cc(-c2cccnc2)nc1F [Example 241] 9.22

Field entry: NC1=N[C@@]2(COC1)c1cc(-c3cccnc3)ccc1Oc1cnc(-c3ccc(F)c(F)c3)cc12 [Example 115] 9.40

Field entry: NC1=N[C@@]2(COC1)c1cc(-c3cccnc3F)ccc1Oc1c2cc(N2CCOCC2)nc1F [Example 58, 2,2,2-trifluoroacetate] 9.30

Field entry: COc1cc2c(cn1)Oc1ccc(-c3cccc(F)c3)cc1[C@@]21COCC(N)=N1 [compound 252] 7.97

Field entry: CC(C)(C)C#Cc1cnc2c(c1)[C@]1(CCOC(N)=N1)c1cc(-c3cccnc3F)ccc1O2 [Example 270] 8.51

Field entry: NC1=N[C@]2(CCS1)c1cc(-c3cccnc3F)ccc1Oc1cnc(C3=CCOCC3)cc12 [compound 194] 6.32

Field entry: NC1=N[C@@]2(CCO1)c1cc(-c3cncc(F)c3)ccc1Oc1c2cc(-c2ccnc(F)c2)nc1F [Example 226] 8.85

Field entry: NC1=N[C@]2(CCS1)c1cc(-c3cccnc3F)ccc1Oc1c(F)cc(C3=CCOCC3)cc12 [compound 196] 5.60

Field entry: NC1=N[C@]2(CCO1)c1cc(-c3cccnc3F)ccc1Oc1ncc(-c3ccnc(F)c3)cc12 [compound 267] 5.18

Field entry: CC(C)(C)C#Cc1cc2c(cn1)Oc1ccc(-c3cccnc3F)cc1[C@@]21CCOC(N)=N1 [Example 154] 8.24

Field entry: NC1=N[C@@]2(COC1)c1cc(-c3cccnc3F)ccc1Oc1c(F)cc(-c3ccnc(F)c3)cc12 [Example 36A] 9.40

Field entry: NC1=N[C@]2(CCO1)c1cc(-c3cccnc3F)ccc1Oc1c2cc(C2=CCCOC2)nc1F [compound 238] 6.53

----------
test system: Aβ40; test: In vitro BACE cell-based assay (Aβ40 sandwich ELISA, cells stably expressing APP); details: Homo sapiens, HEK293, average IC50; read-out: HEK cell assay
REPORTED METRIC: IC50 (nM)
Could you give me the number in nM? Just the number is fine.

Could you share which IC50 value was measured for CC1(COc2cc(F)c3c(c2)[C@]2(CCSC(N)=N2)c2cc(-c4cccnc4F)ccc2O3)COC1 ? 4.8

Field entry: NC1=N[C@@]2(CCO1)c1cc(-c3cccnc3)ccc1Oc1c2cc(-c2cncc(F)c2)nc1F 0.3

Field entry: NC1=N[C@@]2(COC1)c1cc(-c3cccnc3F)ccc1Oc1c2cc(-c2cccnc2)nc1F 0.5

Then this compound:
Could you share which IC50 value was measured for NC1=N[C@]2(CCO1)c1cc(-c3cccnc3F)ccc1Oc1c(F)cc(-c3cccnc3)cc12 ? 110

----------
test system: Aβ40; experiment: In vitro BACE cell-based assay (Aβ40 sandwich ELISA, cells stably expressing APP); details: Homo sapiens, HEK293, average IC50; read-out: HEK cell assay
REPORTED METRIC: IC50 (µM)
Could you give me the number in µM? Just the number is fine.

As a guide, the following entries are already answered.
Could you share which IC50 value was measured for CC(C)Oc1cc2c(cn1)Oc1ccc(-c3cccnc3F)cc1[C@@]21COCC(N)=N1 ? 0.004

Field entry: NC1=N[C@]2(CCO1)c1cc(-c3cccnc3F)ccc1Oc1c(F)cc(N3CC[C@@H](F)C3)cc12 2.53

Field entry: COc1cc(F)c2c(c1)[C@]1(CCSC(N)=N1)c1cc(-c3cccnc3F)ccc1O2 0.159

Then this compound:
Could you share which IC50 value was measured for CC1(COc2cc(F)c3c(c2)[C@@]2(CCOC(N)=N2)c2cc(-c4cccnc4F)ccc2O3)COC1 ? 0.245

----------
Tested on: Aβ40
Experiment: In vitro BACE cell-based assay (Aβ40 sandwich ELISA, cells stably expressing APP)
Details: Homo sapiens, HEK293, average IC50; read-out: HEK cell assay
Protocol: In Vitro BACE Cell-Based Assay […] Cells stably expressing Amyloid Precursor Protein (APP) were plated at a density of 40K cells/well in 96 well plates (Costar). The cells were cultivated for 24 hours at 37° C. and 5% CO2 in DMEM supplemented with 10% FBS. […] The IC50 of the compound was calculated from the percent of control or percent inhibition of Aβ40 as a function of the concentration of the test compound. […]
Mark YES only for IC50 values smaller than 5 nM; exact matches and larger values are NO.

Examples from the recorded data:
I'd appreciate it if you could check whether CC1(C#Cc2cnc3c(c2)[C@]2(CCOC(N)=N2)c2cc(-c4cccnc4F)ccc2O3)COC1 has IC50 smaller than 5 nM. YES

Field entry: CC(C)(F)COc1cc(F)c2c(c1)[C@@]1(CCOC(N)=N1)c1cc(-c3cccnc3F)ccc1O2 NO

Field entry: NC1=N[C@]2(CCO1)c1cc(-c3cncc(F)c3)ccc1Oc1c2cc(C2=CCCOC2)nc1F NO

Field entry: NC1=N[C@@]2(CCS1)c1cc(-c3cccnc3F)ccc1Oc1cnc(Cl)cc12 NO

Field entry: NC1=N[C@@]2(CCO1)c1cc(-c3cccnc3F)ccc1Oc1c(F)cc(N3CCC(F)(F)CC3)cc12 NO

New cases:
I'd appreciate it if you could check whether CCOc1cc2c(cn1)Oc1ccc(-c3cccnc3F)cc1[C@@]21COCC(N)=N1 has IC50 smaller than 5 nM. YES

Field entry: NC1=N[C@@]2(COC1)c1cc(-c3cccnc3F)ccc1Oc1c2cc(-c2cncc(F)c2)nc1F YES

----------
Reported IC50 for target or system BACE (Homo sapiens), by entry.
Could you give me the number in nM? Just the number is fine.

As a guide, the following entries are already answered.
Could you share which IC50 value was measured for N#Cc1cccc(-c2ccc3c(c2)[C@@]2(CCOC(N)=N2)c2cc(C4=CCCOC4)nc(F)c2O3)c1 ? 0.8

Field entry: NC1=N[C@@]2(CO[C@@H]1c1ccccc1)c1cc(-c3cccnc3F)ccc1Oc1cnc(Cl)cc12 88.3

Field entry: CC1(C#Cc2cnc3c(c2)[C@]2(COCC(N)=N2)c2cc(-c4cc(Cl)ccc4F)ccc2O3)COC1 0.5

Then this compound:
Could you share which IC50 value was measured for NC1=N[C@]2(COC1)c1cc(-c3cccnc3F)ccc1Oc1c(F)cc(N3CCOCC3)cc12 [35B] ? 211

----------
target: BACE (Homo sapiens, UniProt P56817)
Sequence (P56817 46-501, species assumed): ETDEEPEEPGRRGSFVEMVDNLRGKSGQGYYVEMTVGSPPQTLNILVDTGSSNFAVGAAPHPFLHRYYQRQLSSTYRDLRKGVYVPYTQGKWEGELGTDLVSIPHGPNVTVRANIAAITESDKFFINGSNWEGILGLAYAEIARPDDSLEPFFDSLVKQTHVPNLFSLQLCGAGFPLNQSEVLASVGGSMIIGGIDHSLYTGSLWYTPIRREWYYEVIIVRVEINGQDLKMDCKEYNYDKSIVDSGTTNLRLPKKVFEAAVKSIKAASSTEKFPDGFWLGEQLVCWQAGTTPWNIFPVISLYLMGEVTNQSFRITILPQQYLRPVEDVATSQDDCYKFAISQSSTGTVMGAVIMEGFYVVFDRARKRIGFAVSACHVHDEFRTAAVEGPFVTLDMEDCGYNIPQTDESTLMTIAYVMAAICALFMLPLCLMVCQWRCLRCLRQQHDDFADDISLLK
REPORTED METRIC: log10 of IC50 (log10 of the value in µM)
Plainly stated, the numbers are log10 of IC50 given in µM.

As a guide, the following entries are already answered.
Could you share which log10 of IC50 value was measured for NC1=N[C@@]2(COC1)c1cc(-c3cccnc3F)ccc1Oc1c2cc(C2=CCOCC2)nc1F ? -3.22

Field entry: NC1=N[C@]2(CCS1)c1cc(-c3cccnc3F)ccc1Oc1cnc(C3=CCCOC3)cc12 -0.04

Field entry: COc1cc(F)c2c(c1)[C@]1(CCSC(N)=N1)c1cc(-c3cccnc3F)ccc1O2 -1.52

New cases:
Could you share which log10 of IC50 value was measured for NC1=N[C@]2(CCO1)c1cc(-c3cccnc3F)ccc1Oc1c2cc(-c2ccccc2)nc1F ? -0.75

Field entry: NC1=N[C@]2(CCS1)c1cc(-c3cccnc3F)ccc1Oc1cnc(-c3ccnc(F)c3)cc12 0.38

Field entry: NC1=N[C@@]2(CCO1)c1cc(-c3cncc(F)c3)ccc1Oc1c2cc(C2=CCCOC2)nc1F -3.10

Field entry: CC(C)(C)C#Cc1ccc2c(c1)[C@@]1(COCC(N)=N1)c1cc(C3=CCOCC3)cnc1O2 -2.49

Field entry: NC1=N[C@@]2(CCO1)c1cc(-c3cccnc3)ccc1Oc1c2cc(-c2cncc(F)c2)nc1F -3.10

----------
Reported log10 of IC50 for target or system BACE (Homo sapiens, UniProt P56817), by entry.
Plainly stated, the numbers are log10 of IC50 given in nM.

As a guide, the following entries are already answered.
Could you share which log10 of IC50 value was measured for NC1=N[C@@]2(CCO1)c1cc(-c3cccnc3F)ccc1Oc1ncc(-c3ccnc(F)c3)cc12 ? 1.09

Field entry: NC1=N[C@]2(CCO1)c1cc(-c3cccnc3)ccc1Oc1c(F)cc(C3=CCOCC3)cc12 2.89

Field entry: COc1nc(-c2cccnc2)cc2c1Oc1ccc(-c3cccnc3F)cc1C21CCOC(N)=N1 (centres unmarked) 1.70

Field entry: CC(C)(C)COc1cc2c(cn1)Oc1ccc(-c3cccnc3F)cc1[C@@]21COCC(NC=O)=N1 1.24

Field entry: NC1=N[C@@]2(COC1)c1cc(-c3cccnc3F)ccc1Oc1c2cc(-c2cncc(F)c2)nc1F -0.52

New cases:
Could you share which log10 of IC50 value was measured for NC1=N[C@]2(CO[C@@H]1C1CCOCC1)c1cc(-c3cccnc3F)ccc1Oc1cnc(Cl)cc12 (racemic) ? 1.06

Field entry: COc1cc2c(cn1)Oc1ccc(-c3cccnc3F)cc1[C@@]21COCC(N)=N1 0.34

Field entry: CC(C)(C)COc1cc2c(c(F)n1)Oc1ccc(-c3cccnc3F)cc1[C@]21COCC(N)=N1 [Example 59B] 1.93
